# Test system: L1210 leukemia ip in BDF1 mice, survival T/C
# test summary: NCI In Vivo Anticancer Drug Screen. Data for tumor model L1210 Leukemia (intraperitoneal) in B6D2F1 (BDF1) mice
# protocol conditions: endpoint: mean survival time; dose: 200.0 mg/kg/injection; schedule: Q01DX001 (ip); vehicle: Klucel (hydroxypropylcellulose) (HPC)
Inconclusive results and toxic doses are left out. No stated cut-off is given here; in the data, active means T/C of 150% or more; inactive means T/C below 125%.
Select the correct class. Options are Y (active), N (inactive) and nothing else.

Lab log entry: "Cc1ccc(NC(=O)N(C)N=O)cc1" — outcome as called in the assay?
N

Likewise for "CCCCCCCCCCCCCOc1ccc2ccccc2c1" ?
Y

Likewise for "CS/C(N)=N\NC(N)=S" ?
N

Likewise for O=CC1OC(c2ccccc2)OC2COC(c3ccccc3)OC12 (stereo not given) ?
N

Likewise for "O=C1c2ccccc2C(=O)N1Cc1cccc(CBr)c1" ?
N

Likewise for "COc1cc2c(c3c1CCC(C)(C)O3)Cc1c(cc(OC)c(OC)c1CCC(C)(C)O)O2" ?
N

Likewise for "COc1ccccc1N=Nc1c(O)n(-c2ccccc2OC)c(=S)n(-c2ccccc2)c1=O" ?
N

Likewise for CCC(Oc1ccccc1OC)C(=O)O (stereo not given) ?
N

Likewise for "Cn1nc(N)c2cc3c(=O)[nH]cnc3nc21" ?
N

Likewise for "Fc1cccc(/C=C2/c3cc(Cl)ccc3-c3c(Cl)cc(Cl)cc32)c1" ?
N

Likewise for "N#C/C(N)=C(/C#N)N=Cc1ccccc1" ?
N

Likewise for "CCOC(=O)C(=O)Nc1onc(C)c1[N+](=O)[O-]" ?
N

Likewise for "COc1ccc(-n2c(=O)c(N=Nc3ccccc3C)c(O)n(-c3ccc(C)cc3)c2=S)cc1" ?
N

Likewise for N#CC(c1ccc(Br)cc1)C1c2ccccc2-c2ccccc21 (stereo not given) ?
N

Likewise for COC(=O)C(CCC(=O)O)NC(=O)C(F)(F)F (stereo not given) ?
N

Likewise for CC(=O)c1ccc(CC2CC3CCC2C3)cc1 (stereo not given) ?
N

Likewise for "O=C1OCc2c1cc1n(c2=O)Cc2cc3ccccc3nc2-1" ?
N

Likewise for "COc1ccccc1-n1c(O)c(N=Nc2ccc(Br)cc2)c(=O)n(-c2ccc(Cl)cc2)c1=S" ?
N

Likewise for "CCCCCCCCCCCCOc1cccc(OCCCCCCCCCCCC)c1" ?
N

Likewise for "O=Cc1cc(C(=O)c2ccccn2)c2cc(Cl)cc(Cl)c2n1" ?
N

Likewise for "CCCCCCCCOc1ccc(C(c2ccccc2)(c2ccccc2)c2ccccc2)cc1" ?
N

Likewise for "O=C1C=C(N2CCOCC2)c2cccc3cccc1c23" ?
N

Likewise for "S=C(Nc1ccccc1)N1CC1" ?
N

Likewise for "CC(C)NC(=O)NC(C)C" ?
N

Likewise for "CC(=O)OC1=COc2c(Cl)ccc3cccc1c23" ?
N

* * *

For each of the molecules below, state its T/C.
# Tested on: L1210 leukemia ip in BDF1 mice, survival T/C
# test summary: NCI In Vivo Anticancer Drug Screen. Data for tumor model L1210 Leukemia (intraperitoneal) in B6D2F1 (BDF1) mice
# protocol conditions: endpoint: mean survival time; dose: 200.0 mg/kg/injection; schedule: Q04DX002 (ip); vehicle: saline with Tween-80; higher = longer survival
Inconclusive results and toxic doses are left out.

What does the data say about its T/C? Entry: CCOC(=N)CC(O)C(Cl)(Cl)Cl (centres undefined)
103 % of control

Likewise for "CCCCCCC#CC(=O)OCCCCC" ?
100 % of control

Likewise for CCC(C)NC(=O)/C=C\C(=O)O (centres undefined) ?
92 % of control

Likewise for "COc1cc(C2=N/C(=C\c3ccccc3O)C(=O)O2)cc(OC)c1OC" ?
89 % of control

Likewise for "COc1ccc(C(=O)NC(=S)Nc2ccc(CCO)cc2)cc1" ?
100 % of control

Likewise for "O=C1CSC(=S)N1c1ccc(N2C(=O)CSC2=S)cc1" ?
96 % of control

Likewise for "Cc1ccc(Nc2cc(Br)c(N)c3c2C(=O)c2ccccc2C3=O)cc1" ?
86 % of control

Likewise for "Cc1cc(C)c(Nc2n[nH]c(=S)s2)cc1C" ?
92 % of control

Likewise for "CCOP(=O)(OCC)C(c1ccccc1)(c1ccccc1)c1ccccc1" ?
90 % of control

* * *

# Tested on: L1210 leukemia ip in BDF1 mice, survival T/C
# test summary: NCI In Vivo Anticancer Drug Screen. Data for tumor model L1210 Leukemia (intraperitoneal) in B6D2F1 (BDF1) mice
# protocol conditions: endpoint: mean survival time; dose: 100.0 mg/kg/injection; schedule: Q04DX003 (ip); vehicle: carboxymethylcellulose (CMC); higher = longer survival
Toxic doses and inconclusive results are not listed.
outcome measure: T/C

What does the data say about its T/C? Entry: "CC(C)COC(=O)c1ccc(NC(=O)Nc2ccc(F)cc2)cc1"
96 % of control

Likewise for "CCCCCCCCCCCCCCCC(=O)N(CCC)CCC" ?
102 % of control

Likewise for "Cc1ccc(NC(=S)N(CCC#N)Cc2ccccc2)cc1C" ?
90 % of control

Likewise for "NC(CSSCC(N)=NC1CCCCC1)=NC1CCCCC1" ?
104 % of control

Likewise for CC1CC(=O)c2c(cc3c(-c4c(O)cc(O)c5c(O)c6c(cc45)OC(C)CC6=O)c(O)cc(O)c3c2O)O1 (stereo not drawn) ?
103 % of control

Likewise for "CN(C(=O)c1ccncc1)c1ccccc1" ?
97 % of control

Likewise for "CCOC(=O)/C(C(=S)NC(=O)c1ccc(Br)cc1)=C(/C)N" ?
95 % of control

Likewise for CC1c2c(c3ccccc3n2C)CC[N+]1(C)C (stereo not drawn) ?
116 % of control

* * *

# Tested on: L1210 leukemia ip in BDF1 mice, survival T/C
# test summary: NCI In Vivo Anticancer Drug Screen. Data for tumor model L1210 Leukemia (intraperitoneal) in B6D2F1 (BDF1) mice
# protocol conditions: endpoint: mean survival time; dose: 400.0 mg/kg/injection; schedule: Q04DX003 (ip); vehicle: Klucel (hydroxypropylcellulose) (HPC); higher = longer survival
Inconclusive results and toxic doses are left out.
outcome measure: T/C

What does the data say about its T/C? Entry: "Nc1ccccc1Sc1ccc(C(=O)O)cc1[N+](=O)[O-]"
100 % of control

Likewise for CC(=O)c1ccc(CC2CC3CCC2C3)cc1 (stereo not drawn) ?
98 % of control

Likewise for "O=C(NC1CCCCC1)OC/C=C\c1ccccc1" ?
102 % of control

* * *

For each of the compounds below, state its T/C.
# System: L1210 leukemia ip in BDF1 mice, survival T/C
# test summary: NCI In Vivo Anticancer Drug Screen. Data for tumor model L1210 Leukemia (intraperitoneal) in B6D2F1 (BDF1) mice
# protocol conditions: endpoint: mean survival time; dose: 200.0 mg/kg/injection; schedule: Q01DX001 (ip); vehicle: other; higher = longer survival
Toxic doses and inconclusive results are not listed.

What does the data say about its T/C? Entry: Cc1ccc(S(=O)(=O)N(c2ccccc2)C(C)C(=O)c2ccccc2)cc1 (centres undefined)
92 % of control

Likewise for "Oc1ccccc1C=NCCN=Cc1ccccc1O.[Zn+2]" ?
114 % of control

Likewise for O=C1CCCCC1O (centres undefined) ?
103 % of control

Likewise for O=C(NC(=O)C(C(=O)c1ccccc1)c1ccccc1)c1ccccc1 (centres undefined) ?
89 % of control

Likewise for "O=S(=O)(Nc1ccccn1)c1ccc(N(CCCl)CCCl)cc1" ?
103 % of control

Likewise for "CCCNC(=O)c1cccc(-c2cccc(C(=O)NCCC)c2)c1" ?
93 % of control

Likewise for "CCCCN(C)N=Nc1ccc([N+](=O)[O-])cc1C(N)=O" ?
105 % of control

Likewise for CCOC(=O)C1C(=O)C(N=Nc2ccc(-c3ccc(N=NC4C(=O)C(C(=O)OCC)C(c5ccc(O)c(OC)c5)C(C(=O)OCC)C4=O)cc3)cc2)C(=O)CC1c1ccc(O)c(OC)c1 (centres undefined) ?
103 % of control

Likewise for "Cc1cc(CO)c(O)c(CO)c1" ?
100 % of control

Likewise for "CCOC(=O)CN(CCN(CC)CC)c1ccc([N+](=O)[O-])cc1[N+](=O)[O-]" ?
87 % of control

Likewise for "CNS(=O)(=O)c1ccc(N)cc1" ?
104 % of control

Likewise for "ClCCN(CCCl)c1ccc(C=Nc2ccc(/C=C\c3ccnc4ccccc34)cc2)cc1" ?
94 % of control

Likewise for "CCCCCCCCCCCCCCCCCCOC(=O)c1ccco1" ?
105 % of control

Likewise for Nc1nnnc2c1cnn2C1OC(CO)C(O)C1O (centres undefined) ?
101 % of control

* * *

For each of the compounds below, state its T/C.
# Tested on: L1210 leukemia ip in BDF1 mice, survival T/C
# test summary: NCI In Vivo Anticancer Drug Screen. Data for tumor model L1210 Leukemia (intraperitoneal) in B6D2F1 (BDF1) mice
# protocol conditions: endpoint: mean survival time; dose: 100.0 mg/kg/injection; schedule: Q01DX001 (ip); vehicle: saline; higher = longer survival
Inconclusive results and toxic doses are left out.

Form field - read-out: T/C; system: L1210 leukemia ip in BDF1 mice, survival T/C; submitted item: "N#CC(C(=O)c1ccccc1)=C([SH2+])[SH2+].N#CC(C(=O)c1ccccc1)=C([SH2+])[SH2+].[Cu+2].c1ccc([AsH](c2ccccc2)(c2ccccc2)c2ccccc2)cc1"
103 % of control

Likewise for "CCOC(=O)/C(C#N)=C1\CCc2cc(OC)ccc21" ?
96 % of control

Likewise for "O=C(Nc1cnccn1)C(F)(F)F" ?
105 % of control

Likewise for "CCCCCCC1CC(=O)CC(=O)C1" ?
101 % of control

Likewise for "CC1=C(Sc2ccccc2)c2ccccc2C1" ?
86 % of control

Likewise for Cc1ccc(C(OC(=O)c2ccccc2)c2nccc3ccccc23)cc1 (stereo not drawn) ?
86 % of control

Likewise for "C=CCN(CC=C)c1ncnc2[nH]ncc12" ?
109 % of control

Likewise for "O=P(O)(N(CCCl)CCCl)N1CCN(P(=O)(O)N(CCCl)CCCl)CC1" ?
115 % of control
